System: human Factor 7 mRNA
ASSAY_METHOD_TEXT: Antisense inhibition of human Factor 7 mRNA in HepB3 cells, 50 nM antisense oligonucleotide, lipofectin
Type: cell-based
COND: Table 1, 50 nM, lipofectin, approximately 24 hours, relative to untreated control cells
Strand notation (5' to 3'): a small letter for the sugar, then the base; units joined by * are phosphorothioate-linked, units joined directly phosphodiester-linked; [ ] holds rarer units or linkages, { } end groups; capitals alone tell only the bases. e = 2'-O-(2-methoxyethyl) (MOE); [5mC] = 5-methylcytosine; d = 2'-deoxy (DNA)
% Inhibition overview
Mention the unit after the number when you answer.

407598 (antisense e[5mC]*e[5mC]*eA*eT*eG*dA*dT*dG*dA*dA*dA*dT*d[5mC]*dT*d[5mC]*eT*eG*e[5mC]*eA*eG) [compound 407598] ... 72%
407637 (antisense eG*eT*eA*e[5mC]*eT*dG*dG*dG*dA*dG*dA*d[5mC]*d[5mC]*d[5mC]*dT*eG*eG*eT*eG*eT) [compound 407637] ... 71%

Which value of % Inhibition has been reported for 407930 (antisense e[5mC]*eA*eA*eT*eG*dA*dA*dG*dG*d[5mC]*dA*dG*dA*dG*d[5mC]*eA*eG*e[5mC]*eA*eG) [compound 407930] in the records?
70%

###

Test system: human Factor 7 mRNA
ASSAY_METHOD_TEXT: Dose-dependent antisense inhibition of human Factor 7 in HepB3 cells, lipofectin
Format: cell-based
COND: Table 7, 100.0 nM, approximately 16 hours
Procedure: Cells were plated at a density of 4,000 cells per well and treated with lipofectin reagent with 3.125 nM, 6.25 nM, 12.5 nM, 25 nM, 50 nM, and 100 nM concentrations of antisense oligonucleotide, as indicated in Table 3. After a treatment period of approximately 16 hours, RNA was isolated from the cells and Factor 7 mRNA levels were measured by real-time RT-PCR, as described herein. […] Factor 7 mRNA levels were adjusted according to total RNA content as measured by RIBOGREEN®. […]
Strand notation (5' to 3'): a small letter for the sugar, then the base; units joined by * are phosphorothioate-linked, units joined directly phosphodiester-linked; [ ] holds rarer units or linkages, { } end groups; capitals alone tell only the bases. e = 2'-O-(2-methoxyethyl) (MOE); [5mC] = 5-methylcytosine; d = 2'-deoxy (DNA)
PROPERTY_NAME: percent inhibition of Factor 7 (%)
Quick note: give the figure in %, leave out the unit.

Example entries begin here.
416508 (antisense e[5mC]*eG*eA*eG*eT*dT*d[5mC]*dT*dG*d[5mC]*dA*dG*dG*dA*dG*e[5mC]*eG*eG*e[5mC]*e[5mC]) [compound 416508] ... 89
416472 (antisense e[5mC]*eA*eG*e[5mC]*e[5mC]*dT*dT*dG*dG*d[5mC]*dT*dT*dT*d[5mC]*dT*e[5mC]*eT*e[5mC]*e[5mC]*eA) [compound 416472] ... 88

Which value of percent inhibition of Factor 7 has been reported for 407900 (antisense e[5mC]*e[5mC]*e[5mC]*e[5mC]*eA*d[5mC]*dA*dA*dT*dT*d[5mC]*dG*dG*d[5mC]*d[5mC]*eT*eT*eG*eG*eG) [compound 407900] in the records?
91

###

% Inhibition overview
Test system: human Factor 7 mRNA
ASSAY_METHOD_TEXT: Antisense inhibition of human Factor 7 with short (14-mer) oligonucleotides in HepB3 cells, electroporation 1,000 nM
Type: cell-based
COND: electroporation, 1,000 nM antisense oligonucleotide, approximately 24 hours, Factor 7 mRNA relative to untreated control cells
Strand notation (5' to 3'): a small letter for the sugar, then the base; units joined by * are phosphorothioate-linked, units joined directly phosphodiester-linked; [ ] holds rarer units or linkages, { } end groups; capitals alone tell only the bases. e = 2'-O-(2-methoxyethyl) (MOE); [5mC] = 5-methylcytosine; d = 2'-deoxy (DNA)
Quick note: give the figure in %, leave out the unit.

435755 (antisense eG*eG*dG*dA*d[5mC]*dT*d[5mC]*dA*dG*d[5mC]*dA*dA*eG*eA) [compound 435755] ... 0
435699 (antisense eG*e[5mC]*d[5mC]*d[5mC]*d[5mC]*dA*dG*d[5mC]*dT*dG*dA*d[5mC]*eG*eA) [compound 435699] ... 48
435843 (antisense eG*e[5mC]*dT*dG*dG*dA*dG*d[5mC]*dT*dG*dA*dG*e[5mC]*e[5mC]) [compound 435843] ... 0

Which value of % Inhibition has been reported for 435749 (antisense e[5mC]*eA*dG*d[5mC]*d[5mC]*dA*dG*dG*dG*d[5mC]*d[5mC]*dT*eG*eG) [compound 435749] in the records?
29

Now try 435806 (antisense eT*eG*dA*d[5mC]*d[5mC]*d[5mC]*d[5mC]*dA*d[5mC]*dA*dG*dG*eG*eA) [compound 435806] .
7

Now try 435748 (antisense eT*e[5mC]*d[5mC]*d[5mC]*dA*dG*dG*dG*dT*d[5mC]*dT*d[5mC]*eT*eG) [compound 435748] .
18

Now try 435780 (antisense eG*eG*dA*dG*dG*dG*dA*d[5mC]*dG*dA*d[5mC]*d[5mC]*eT*eT) [compound 435780] .
28
